Values from patent US12077503B2

Recorded Plant response rating (scale of 0 to 100), Waterhemp, one value per entry.
# Test system: waterhemp (common waterhemp, Amaranthus rudis)
# test-summary: Test C preemergence
# Format: in vivo
# condition-description: 31 g ai/ha, 0 is no effect, 100 is complete control
Number only, please.

Below, 3 compounds whose answers are already recorded.
In [3]: df
Out[3]:
                                   compound  measurement
0  CN1C[C@H](c2ccc(C(F)(F)F)cc2)[C@@H](C(=O)Nc2ccccc2F)C1=O [Compound 622]           75
1  CN1CC(c2ccc(C(F)(F)F)cc2)C(C(=O)Nc2ccccc2S(C)(=O)=O)C1=O (stereo not shown) [Compound 624]           85
2  O=C1NCC(c2cc(F)cc(Cl)c2)C1C(=O)Nc1cccc(F)c1F (stereo not shown) [Compound 492]            0

[in] waterhemp (common waterhemp, Amaranthus rudis) / Plant response rating (scale of 0 to 100), Waterhemp / CN1CC(c2ccc(C(C)(F)F)cc2)C(C(=O)Nc2ccccc2F)C1=O (stereo not shown) [Compound 691] : value?
[out] 85

----------
# Tested on: ivy-leaved morning glory (Ipomoea hederacea)
# test-summary: Test G Post-Emergence Protocol
# Assay type: in vivo
# condition-description: Ipomoea, post-emergence, 312 h, 62.5 g ai/ha, evaluated after 13 days, 100=total damage to plant, 0=no damage to plant, read-out: Morningglory, Ivy-leaved damage rating
Overview of recorded pest or weed control at 62.5 g/ha for various molecules
A number alone suffices; assume %.

In the examples that follow, each entry is paired with its recorded pest or weed control at 62.5 g/ha.
In [3]: df
Out[3]:
                                   molecule                              assay_system  readout_units  measurement
0  CCOc1ccc([C@@H]2CN(C)C(=O)[C@H]2C(=O)Nc2cccc(F)c2C)cc1Cl (racemic)  ivy-leaved morning glory (Ipomoea hederacea)              %           10
1  CN1C[C@@H](c2ccc(C(F)(F)F)cc2)[C@H](C(=O)Nc2cncc(F)n2)C1=O (racemic)  ivy-leaved morning glory (Ipomoea hederacea)              %           10
2  CN1CC(C2CCN=C(C(C)(C)C)N2)C(C(=O)Nc2ccc(F)c(F)c2F)C1=O (stereo not shown)  ivy-leaved morning glory (Ipomoea hederacea)              %            0
3  CN1C[C@H](c2cc(C(C)(C)C)ncn2)[C@@H](C(=O)Nc2cccc(F)c2F)C1=O (racemic)  ivy-leaved morning glory (Ipomoea hederacea)              %            0
4  COc1cc(C2CN(C)C(=O)C2C(=O)Nc2cccc(F)c2F)cc(Cl)c1OC (stereo not shown)  ivy-leaved morning glory (Ipomoea hederacea)              %           20

[in] Recorded pest or weed control at 62.5 g/ha of CN1C[C@H](c2cccc(C(C)(C)C#N)c2)[C@@H](C(=O)Nc2ccccc2S(C)(=O)=O)C1=O (racemic) , please.
[out] 0

[in] State the recorded pest or weed control at 62.5 g/ha for this entry: COc1cc(C2CN(C)C(=O)C2C(=O)Nc2cccc(F)c2F)cc(OC)c1F (stereo not shown)
[out] 30

[in] GET /values?readout=pest or weed control at 62.5 g/ha&item= Cc1c(F)ccc(NC(=O)[C@@H]2C(=O)N(C)C[C@H]2c2ccc(C(F)(F)F)cc2)c1Cl (racemic)
[out] 10

----------
# System: ryegrass, Italian (Italian ryegrass, Lolium multiflorum)
# test-summary: Test A preemergence
# Format: in vivo
# condition-description: Lolium multiflorum, pre-emergence, 240 h, 31 g ai/ha, Preemergence; 0 to 100 scale where 0 is no effect and 100 is complete control; read-out: Ryegrass, Italian plant response rating
value-kind: pest or weed control at 31 g/ha (%)
State the answer as a number, implicitly in %.

                                   compound  readout_units  measurement
0  COc1cccc([C@H]2CN(C)C(=O)[C@@H]2C(=O)Nc2cccc(F)c2F)c1 [Compound 1062]              %           10
1  CSc1ccccc1NC(=O)[C@H]1C(=O)NC[C@@H]1c1ccc(C(F)(F)F)cn1 [Compound 1050]              %            0
2  CN1C[C@H](c2cc(C(F)F)cs2)[C@@H](C(=O)Nc2ccccc2S(C)(=O)=O)C1=O [Compound 1084]              %            0
3  CN1C[C@H](c2ccc(Cl)cc2)[C@@H](C(=O)Nc2ccc(F)c(F)c2F)C1=O [Compound 1144]              %           50

# evaluate next
[in] Which pest or weed control at 31 g/ha is reported for this compound? CN1C[C@H](c2ccc(Cl)c(F)c2)[C@@H](C(=O)Nc2cccc(F)c2F)C1=O [Compound 1265]
[out] 50

----------
Quick list: Plant response rating, Ragweed per entry.
# Test system: ragweed (common ragweed, Ambrosia elatior)
# test-summary: Test C preemergence
# Type: in vivo
# condition-description: 62 g ai/ha, scale 0 to 100, 0 no effect, 100 complete control
Just the number, please.

Some solved cases for reference:
>>> df
                                   compound                              assay_system  measurement
0  CN1CC(c2ccc(C(F)(F)F)c(F)c2)C(C(=O)Nc2ccccc2S(C)(=O)=O)C1=O (centres unmarked) [Compound 397]  ragweed (common ragweed, Ambrosia elatior)           75
1  Cc1ccc(C2CN(C)C(=O)C2C(=O)Nc2cccc(F)c2F)cc1F (centres unmarked) [Compound 464]  ragweed (common ragweed, Ambrosia elatior)           70
2  CN1CC(c2ccc(C(F)(F)F)cc2)C(C(=S)Nc2ccccc2F)C1=O (centres unmarked) [Compound 450]  ragweed (common ragweed, Ambrosia elatior)           10
3  CN1C[C@H](c2ccc(F)c(F)c2)[C@@H](C(=O)Nc2cccc(F)c2F)C1=O [Compound 639]  ragweed (common ragweed, Ambrosia elatior)           60

[in] Quick one: Plant response rating, Ragweed of CN1CC(c2ccc(F)c(C(F)(F)F)c2)C(C(=O)Nc2cccc(F)c2F)C1=O (centres unmarked) [Compound 613] ?
[out] 25

----------
As shown below, each of these compounds has a reported pest or weed control at 250 g/ha value.
# Test system: ivy-leaved morning glory (Ipomoea hederacea)
# test-summary: Test G Post-Emergence Protocol
# Assay type: in vivo
# condition-description: Ipomoea, post-emergence, 312 h, 250 g ai/ha, evaluated after 13 days, read-out: damage to plant, Morningglory, Ivy-leaved (100=total damage to plant; 0=no damage to plant)
Only the number, expressed in %, is required.

In [3]: df
Out[3]:
                                   compound                        value_kind  measurement
0  COc1ccc(CNC(=O)[C@H]2C(=O)N(C)C[C@@H]2c2ccc(C(F)(F)F)cc2)c(OC)c1 (racemic)  pest or weed control at 250 g/ha            0
1  CN1C[C@@H](c2ccc(C(F)(F)F)cc2)[C@H](C(=O)Nc2cccc(Cl)c2C#N)C1=O (racemic)  pest or weed control at 250 g/ha            0
2  Cc1onc(NC(=O)[C@@H]2C(=O)N(C)C[C@H]2c2ccc(C(F)(F)F)cc2)c1Cl (racemic)  pest or weed control at 250 g/ha            0
3  CN1C[C@H](c2ccc(C(F)(F)F)cc2)[C@@H](C(=O)Nc2cccc(C(F)F)c2)C1=O (racemic)  pest or weed control at 250 g/ha            0

[in] Any idea what its pest or weed control at 250 g/ha is? The compound is COC(=O)c1cc([C@H]2CN(C)C(=O)[C@@H]2C(=O)Nc2ccccc2F)ccc1Cl (racemic)
[out] 10

[in] Given the entry CN1C[C@@H](c2ccc(C(F)(F)F)cc2)[C@H](C(=O)Nc2ccc(F)c(F)c2Cl)C1=O (racemic) , report its measured pest or weed control at 250 g/ha.
[out] 70

----------
Each entry below lists one item and its recorded Plant response rating, Wheat value.
# Test system: wheat (winter wheat, Triticum aestivum)
# test-summary: Test C preemergence
# Type: in vivo
# condition-description: 250 g ai/ha, scale 0 to 100, 0 no effect, 100 complete control

Example results:
>>> df
                                   molecule                             assay_system                    value_kind  measurement
0  Cc1cccc(C2CN(C)C(=O)C2C(=O)Nc2cccc(F)c2F)c1 (centres unmarked) [Compound 667]  wheat (winter wheat, Triticum aestivum)  Plant response rating, Wheat           50
1  CN1CC(c2cccc(C(F)(F)F)c2)C(C(=O)Nc2cccc(F)c2F)C1=O (centres unmarked) [Compound 636]  wheat (winter wheat, Triticum aestivum)  Plant response rating, Wheat           75
2  O=C1NCC(c2cc(F)cc(Cl)c2)C1C(=O)Nc1cccc(F)c1F (centres unmarked) [Compound 492]  wheat (winter wheat, Triticum aestivum)  Plant response rating, Wheat           35

[in] Form entry - test system: wheat (winter wheat, Triticum aestivum); read-out: Plant response rating, Wheat; molecule: CN1CC(c2ccc(F)c(C(F)(F)F)c2)C(C(=O)Nc2cccc(F)c2F)C1=O (centres unmarked) [Compound 613]
[out] 70

[in] What value of Plant response rating, Wheat on wheat (winter wheat, Triticum aestivum) does CN1CC(c2cccc(OC(F)(F)C(F)F)c2)C(C(=O)Nc2ccc(F)cc2F)C1=O (centres unmarked) [Compound 393] have?
[out] 70
